Cited source: ChEMBL document CHEMBL1944540

Catalogue of IC50 values
biological target: Phosphatidylinositol 4,5-bisphosphate 3-kinase catalytic subunit gamma isoform (Homo sapiens, UniProt P48736); assay: Inhibition of PI3Kgamma after 4 hrs
Sequence (P48736 whole entry, canonical isoform): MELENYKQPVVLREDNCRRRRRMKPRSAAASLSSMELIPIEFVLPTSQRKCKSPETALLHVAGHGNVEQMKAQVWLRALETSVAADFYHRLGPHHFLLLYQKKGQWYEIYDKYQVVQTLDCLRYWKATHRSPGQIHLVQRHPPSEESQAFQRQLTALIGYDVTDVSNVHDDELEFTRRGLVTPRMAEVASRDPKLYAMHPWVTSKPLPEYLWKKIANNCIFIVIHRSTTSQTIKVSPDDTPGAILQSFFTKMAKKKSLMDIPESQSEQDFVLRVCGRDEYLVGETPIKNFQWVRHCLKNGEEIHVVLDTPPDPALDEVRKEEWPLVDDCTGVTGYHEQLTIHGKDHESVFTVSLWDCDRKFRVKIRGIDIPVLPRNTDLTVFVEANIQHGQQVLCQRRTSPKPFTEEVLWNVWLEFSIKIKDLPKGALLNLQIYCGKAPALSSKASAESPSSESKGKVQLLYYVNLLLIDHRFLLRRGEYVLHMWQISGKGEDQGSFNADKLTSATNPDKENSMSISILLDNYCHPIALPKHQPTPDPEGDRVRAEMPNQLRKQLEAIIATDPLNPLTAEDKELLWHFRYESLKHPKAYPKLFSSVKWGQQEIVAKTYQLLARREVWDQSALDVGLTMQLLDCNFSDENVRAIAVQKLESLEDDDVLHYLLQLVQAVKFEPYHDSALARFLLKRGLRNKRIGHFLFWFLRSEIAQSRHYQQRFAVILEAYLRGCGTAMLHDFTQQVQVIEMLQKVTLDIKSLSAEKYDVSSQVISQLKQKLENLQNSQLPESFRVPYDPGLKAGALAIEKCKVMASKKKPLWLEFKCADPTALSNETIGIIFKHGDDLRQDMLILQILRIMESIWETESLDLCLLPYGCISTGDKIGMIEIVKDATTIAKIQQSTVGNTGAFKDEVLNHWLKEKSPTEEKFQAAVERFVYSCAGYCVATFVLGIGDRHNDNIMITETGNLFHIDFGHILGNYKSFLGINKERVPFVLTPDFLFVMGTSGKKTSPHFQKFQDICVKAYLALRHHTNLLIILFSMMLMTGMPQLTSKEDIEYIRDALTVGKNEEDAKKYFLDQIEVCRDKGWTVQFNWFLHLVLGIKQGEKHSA
Supply the numeric figure in µM, leaving out any unit text.

Asked: Query (compound): CC(=O)Oc1ccc(Br)cc1C1OC(c2ccc3c(c2)OCCO3)=NN1C(C)=O (stereo not given) ; field requested: IC50
Given back: 1.31

Asked: Query (compound): CC(=O)Oc1ccc(Cl)cc1C1OC(c2ccc3c(c2)OCCO3)=NN1C(C)=O (stereo not given) ; field requested: IC50
Given back: 0.98

Asked: Query (compound): CC(=O)Oc1c(Br)cc(Br)cc1C1OC(c2ccc3c(c2)OCCO3)=NN1C(C)=O (stereo not given) ; field requested: IC50
Given back: 1.98

Asked: Query (compound): CC(=O)Oc1c(Cl)cc(Cl)cc1C1OC(c2ccc3c(c2)OCCO3)=NN1C(C)=O (stereo not given) ; field requested: IC50
Given back: 1.75

More entries:
Asked: Query (compound): CC(=O)Oc1ccccc1C1OC(c2ccc3c(c2)OCCO3)=NN1C(C)=O (stereo not given) ; field requested: IC50
Given back: 2.06
